Target: Human orexin receptor type 2 (Homo sapiens, UniProt O43614)
Construct: expressed in transfected cells; host or cells: CHO cells (transient expression)
Sequence (O43614 1-444): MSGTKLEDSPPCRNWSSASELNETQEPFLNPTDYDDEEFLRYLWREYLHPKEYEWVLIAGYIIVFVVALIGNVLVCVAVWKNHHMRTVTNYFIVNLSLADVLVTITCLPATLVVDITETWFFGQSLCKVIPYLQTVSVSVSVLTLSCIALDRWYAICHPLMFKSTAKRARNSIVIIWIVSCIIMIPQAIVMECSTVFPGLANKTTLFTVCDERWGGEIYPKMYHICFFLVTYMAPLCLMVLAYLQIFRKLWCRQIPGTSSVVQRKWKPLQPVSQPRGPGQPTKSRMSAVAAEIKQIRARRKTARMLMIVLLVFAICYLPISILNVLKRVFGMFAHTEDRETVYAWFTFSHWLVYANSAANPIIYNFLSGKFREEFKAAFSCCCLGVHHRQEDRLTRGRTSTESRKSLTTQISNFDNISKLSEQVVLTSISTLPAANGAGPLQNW
Experiment: Test 2: Evaluation of agonist activity for orexin receptor type 2 (aequorin luminescence, intracellular calcium mobilization in CHO cells)
Type: cell-based
Conditions: relative percentage of luminescence for the luminescence (100%) of Orexin A (100 pM); CHO cells transiently expressing human orexin receptor type 2 and apoaequorin; Orexin A Lot. 671009
One threshold, 400%, splits the recorded agonist activity (%) values: lower ones are Y, equal or higher ones are N.

# Item Smiles, Category
measured = [
    ("CC1(c2noc([C@@H]3C[C@@H]3F)n2)CCN(C(=O)N[C@@H]2[C@@H](O[C@H]3CCN(CC4(F)CC4)C3)CCCC2(F)F)CC1", "N"),
    ("CC(C)N1C[C@H]2CC[C@@H](C1)[C@H]2O[C@H]1CCCC(F)(F)[C@@H]1NC(=O)N1CCC(C)(c2noc([C@@H]3C[C@@H]3F)n2)CC1", "Y"),
]

Request: Consider the compound CCC1(c2noc([C@@H]3C[C@@H]3F)n2)CCN(C(=O)N[C@@H]2[C@@H](O[C@H]3CCN(C(C)C)C3)CCCC2(F)F)CC1 . Is its agonist activity (%) strictly less than 400%?
Response: Y

Request: For CC(C)c1cn([C@H]2CCCC(F)(F)[C@@H]2NC(=O)N2CCC(C)(c3noc([C@@H]4C[C@@H]4F)n3)CC2)nn1 , is the recorded agonist activity (%) below the cut-off of 400%?
Response: Y

Request: Is 400% strictly greater than the compound's reported agonist activity (%)? compound: CC(C)OC1CCN([C@H]2CCCC(F)(F)[C@@H]2NC(=O)N2CCC(C)(c3noc([C@@H]4C[C@@H]4F)n3)CC2)CC1
Response: Y

====

Target: Human orexin receptor type 2 (Homo sapiens, UniProt O43614)
Construct: expressed in transfected cells; host or cells: CHO cells (transient expression)
Assay: Test 1: Evaluation of agonist activity for orexin receptor type 2 (aequorin luminescence, intracellular calcium mobilization in CHO cells)
Type: cell-based
Conditions: relative percentage of luminescence for the luminescence (100%) of Orexin A (100 pM); CHO cells transiently expressing human orexin receptor type 2 and apoaequorin; Orexin A Lot. 641114
Method: Test 1: Evaluation of Agonist Activity for Orexin Receptor Type 2 Human orexin receptor type 2 and apoaequorin were transiently expressed in CHO cells, and the agonist activity was evaluated based on intracellular calcium mobilization with ligand stimulation. […] The agonist activity of each test compound for orexin receptor type 2 was calculated as relative percentage of luminescence for the luminescence (100%) of Orexin A (100 pM).
Readout: agonist activity (%)
Report the figure in % without appending any unit label.

# Molecule, Tgt, agonist activity (%)
data = [
    ("Cc1ccc(C2(C)CCN(C(=O)N[C@@H]3[C@@H](N4CC5CC(C4)N5C(C)C)CCCC3(F)F)CC2)cc1", "Human orexin receptor type 2 (Homo sapiens, UniProt O43614)", 169),
    ("CC(C)N1CCN([C@H]2CCCC(F)(F)[C@@H]2NC(=O)N2CCC(C)(c3noc(C4CC4)n3)CC2)CC1 (racemic) [Example 19]", "Human orexin receptor type 2 (Homo sapiens, UniProt O43614)", 167),
    ("CC(C)N1CCN([C@H]2CCCC(F)(F)[C@@H]2NC(=O)N2CCC(c3ccc(C(F)(F)F)cn3)CC2)CC1 (racemic)", "Human orexin receptor type 2 (Homo sapiens, UniProt O43614)", 95),
]

Request: Return value of agonist activity (%) for input CC(C)N1CCN([C@@H]2CCCC(F)(F)[C@H]2NC(=O)N2CCC(C)(c3noc(C4CC4)n3)CC2)CC1 , no commentary.
Response: 104

Request: // fetch agonist activity (%) given entry CC(C)N1CCN([C@H]2CCCC(F)(F)[C@@H]2NC(=O)N2CCC(F)(c3ccccn3)CC2)CC1 (racemic)
Response: 136

Request: Please give the documented agonist activity (%) of CC(C)N1CC[C@H](O[C@H]2CCCC(F)(F)[C@@H]2NC(=O)N2CCC(C)(c3noc([C@@H]4C[C@@H]4F)n3)CC2)C1
Response: 146

Request: Write down agonist activity (%) measured for item CC(C)N1CCN([C@H]2CCCC(F)(F)[C@@H]2NC(=O)N2CCC(c3ccc(F)cn3)CC2)CC1 (racemic)
Response: 113

Request: Provide measured agonist activity (%) value, entry: CC(C)c1ccc(C2=CCCCC2NC(=O)N2CCC(C)(c3noc(C4CC4)n3)CC2)cn1 (racemic)
Response: 39
